Exercise: for every item that follows, state its recorded inhibition at 100 µM.
# Tgt: human Fatty Acid Synthase (Homo sapiens, UniProt P49327)
# Construct: made in house
# Sequence (P49327 whole entry): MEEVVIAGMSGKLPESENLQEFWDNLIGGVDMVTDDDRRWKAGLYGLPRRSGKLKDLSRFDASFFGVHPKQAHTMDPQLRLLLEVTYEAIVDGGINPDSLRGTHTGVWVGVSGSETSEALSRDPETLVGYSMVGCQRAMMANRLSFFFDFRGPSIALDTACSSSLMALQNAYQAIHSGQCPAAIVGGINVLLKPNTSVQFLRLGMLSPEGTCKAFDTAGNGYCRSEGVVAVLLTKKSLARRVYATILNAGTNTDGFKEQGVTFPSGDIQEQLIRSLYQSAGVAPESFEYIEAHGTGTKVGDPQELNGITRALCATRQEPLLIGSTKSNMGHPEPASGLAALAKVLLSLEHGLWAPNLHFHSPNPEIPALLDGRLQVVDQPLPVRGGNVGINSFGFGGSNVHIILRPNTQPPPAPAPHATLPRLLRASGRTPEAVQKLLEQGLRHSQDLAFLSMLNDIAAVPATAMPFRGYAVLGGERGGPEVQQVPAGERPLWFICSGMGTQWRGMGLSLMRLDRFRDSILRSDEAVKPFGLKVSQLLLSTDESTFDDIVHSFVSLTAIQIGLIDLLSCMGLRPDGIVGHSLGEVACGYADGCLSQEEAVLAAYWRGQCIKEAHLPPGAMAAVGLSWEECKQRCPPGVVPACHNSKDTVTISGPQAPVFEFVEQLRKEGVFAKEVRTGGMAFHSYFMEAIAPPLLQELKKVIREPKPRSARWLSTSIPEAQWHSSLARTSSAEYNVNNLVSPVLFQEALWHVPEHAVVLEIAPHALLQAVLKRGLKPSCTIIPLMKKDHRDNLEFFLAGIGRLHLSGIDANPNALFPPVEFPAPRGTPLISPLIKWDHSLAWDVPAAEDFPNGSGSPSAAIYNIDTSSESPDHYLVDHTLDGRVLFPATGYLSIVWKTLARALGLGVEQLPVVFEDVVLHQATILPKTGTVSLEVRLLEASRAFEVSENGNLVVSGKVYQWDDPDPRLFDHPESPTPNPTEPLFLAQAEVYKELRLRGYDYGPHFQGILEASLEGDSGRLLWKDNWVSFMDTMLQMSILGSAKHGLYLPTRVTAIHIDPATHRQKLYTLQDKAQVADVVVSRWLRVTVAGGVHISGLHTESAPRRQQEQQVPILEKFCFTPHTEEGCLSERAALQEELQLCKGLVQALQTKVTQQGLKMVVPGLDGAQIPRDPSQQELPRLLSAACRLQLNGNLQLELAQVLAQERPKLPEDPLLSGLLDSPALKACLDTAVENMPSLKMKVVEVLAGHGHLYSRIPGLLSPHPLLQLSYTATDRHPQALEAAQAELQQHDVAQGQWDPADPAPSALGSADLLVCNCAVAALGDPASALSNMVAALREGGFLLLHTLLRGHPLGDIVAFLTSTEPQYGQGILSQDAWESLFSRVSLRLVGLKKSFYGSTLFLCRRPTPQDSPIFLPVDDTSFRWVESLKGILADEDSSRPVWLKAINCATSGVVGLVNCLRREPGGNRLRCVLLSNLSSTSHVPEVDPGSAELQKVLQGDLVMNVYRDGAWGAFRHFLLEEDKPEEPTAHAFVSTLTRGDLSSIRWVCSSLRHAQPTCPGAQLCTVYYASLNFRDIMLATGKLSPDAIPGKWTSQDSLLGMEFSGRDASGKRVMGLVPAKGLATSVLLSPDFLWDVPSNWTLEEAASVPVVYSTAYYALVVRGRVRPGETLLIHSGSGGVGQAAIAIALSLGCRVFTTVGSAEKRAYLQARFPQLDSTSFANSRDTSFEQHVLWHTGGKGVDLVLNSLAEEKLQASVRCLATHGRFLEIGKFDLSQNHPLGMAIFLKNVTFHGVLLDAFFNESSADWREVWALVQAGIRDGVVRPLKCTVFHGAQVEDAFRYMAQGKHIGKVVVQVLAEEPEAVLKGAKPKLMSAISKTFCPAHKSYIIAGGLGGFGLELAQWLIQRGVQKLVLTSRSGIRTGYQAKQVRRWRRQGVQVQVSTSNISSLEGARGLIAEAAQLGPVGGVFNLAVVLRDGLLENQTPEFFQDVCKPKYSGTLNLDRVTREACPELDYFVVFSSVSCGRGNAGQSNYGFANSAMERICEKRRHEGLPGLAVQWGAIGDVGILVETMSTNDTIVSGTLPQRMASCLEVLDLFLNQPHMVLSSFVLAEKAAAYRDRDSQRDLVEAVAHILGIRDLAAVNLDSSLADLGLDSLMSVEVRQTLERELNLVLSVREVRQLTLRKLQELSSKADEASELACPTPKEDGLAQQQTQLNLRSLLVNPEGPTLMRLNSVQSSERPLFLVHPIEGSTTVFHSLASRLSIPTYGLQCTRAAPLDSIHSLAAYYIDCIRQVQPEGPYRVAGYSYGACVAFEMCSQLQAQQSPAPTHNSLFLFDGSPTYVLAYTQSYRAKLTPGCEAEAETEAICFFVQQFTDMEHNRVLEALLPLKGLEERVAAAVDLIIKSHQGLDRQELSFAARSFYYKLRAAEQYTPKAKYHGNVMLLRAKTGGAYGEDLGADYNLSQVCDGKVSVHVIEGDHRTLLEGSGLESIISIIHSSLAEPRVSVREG
# Experimental Protocol: Human FAS enzyme assay (decrease in NADPH fluorescence)
# Assay type: biochemical
# Applied Conditions: % inhibition at a concentration of 100 micromolar
One number for each entry, in %.

Some solved cases for reference:
# Molecule, Recorded Measurement
data = [
    ("Cc1ccc(C(=O)N2CCC(c3ccc(C#N)cc3)CC2)cc1NS(=O)(=O)c1ccccc1C(=O)N1CCOCC1 [Example 111]", 80),
    ("Cc1ccc(C(=O)N2CCC(c3ccc(C#N)cc3)CC2)cc1NS(=O)(=O)c1ccccc1C(=O)N(C)C [Example 206]", 76),
    ("COCC(=O)NCCS(=O)(=O)Nc1cc(C(=O)N2CCC(c3ccc(C#N)cc3)CC2)ccc1C [Example 87]", 82),
]

# input for lookup
response.value for CCS(=O)(=O)Nc1cc(C(=O)N2CCC(c3ccc(C#N)cc3)CC2)ccc1C [Example 11] (field: inhibition at 100 µM) = 88
